# PROCEDURE_SUMMARY: Cytotoxicity against human SW480 cells after 72 hrs by MTT assay
# Type: cell-based
OUTCOME_MEASURE: GI50 at 72 h (µM)
Quick note: give the figure in µM, leave out the unit.

Known GI50 at 72 h results, listed for orientation:
[[record]]
compound = "O=C(O)C1C(C(=O)Nc2ccc(CO)cc2)[C@H]2CC[C@@H]1O2 (stereo not given in full)"
test_result = 10

[[record]]
compound = "O=C(O)C1C(C(=O)Nc2ccccc2)[C@H]2CC[C@@H]1O2 (stereo not given in full)"
test_result = 10

[[record]]
compound = "C/C(=N/Nc1ccccc1)c1ccccc1NC(=O)C1C(C(=O)O)[C@@H]2CC[C@H]1O2 (stereo not given in full)"
test_result = 10


Exam item: State its GI50 at 72 h for this compound: CCCNC(=O)C1C(C(=O)O)[C@@H]2CC[C@H]1O2 (stereo not given in full)
Marked response: 10

Exam item: State its GI50 at 72 h for this compound: CCCCCCCCCCNC(=O)C1C(C(=O)O)[C@@H]2CC[C@H]1O2 (stereo not given in full)
Marked response: 10
